The measurements presented in this section are drawn from the supplement of paper PMC10065799.

Molecular target: MERTK (UniProt Q12866)
Sequence (Q12866 whole entry, looked up): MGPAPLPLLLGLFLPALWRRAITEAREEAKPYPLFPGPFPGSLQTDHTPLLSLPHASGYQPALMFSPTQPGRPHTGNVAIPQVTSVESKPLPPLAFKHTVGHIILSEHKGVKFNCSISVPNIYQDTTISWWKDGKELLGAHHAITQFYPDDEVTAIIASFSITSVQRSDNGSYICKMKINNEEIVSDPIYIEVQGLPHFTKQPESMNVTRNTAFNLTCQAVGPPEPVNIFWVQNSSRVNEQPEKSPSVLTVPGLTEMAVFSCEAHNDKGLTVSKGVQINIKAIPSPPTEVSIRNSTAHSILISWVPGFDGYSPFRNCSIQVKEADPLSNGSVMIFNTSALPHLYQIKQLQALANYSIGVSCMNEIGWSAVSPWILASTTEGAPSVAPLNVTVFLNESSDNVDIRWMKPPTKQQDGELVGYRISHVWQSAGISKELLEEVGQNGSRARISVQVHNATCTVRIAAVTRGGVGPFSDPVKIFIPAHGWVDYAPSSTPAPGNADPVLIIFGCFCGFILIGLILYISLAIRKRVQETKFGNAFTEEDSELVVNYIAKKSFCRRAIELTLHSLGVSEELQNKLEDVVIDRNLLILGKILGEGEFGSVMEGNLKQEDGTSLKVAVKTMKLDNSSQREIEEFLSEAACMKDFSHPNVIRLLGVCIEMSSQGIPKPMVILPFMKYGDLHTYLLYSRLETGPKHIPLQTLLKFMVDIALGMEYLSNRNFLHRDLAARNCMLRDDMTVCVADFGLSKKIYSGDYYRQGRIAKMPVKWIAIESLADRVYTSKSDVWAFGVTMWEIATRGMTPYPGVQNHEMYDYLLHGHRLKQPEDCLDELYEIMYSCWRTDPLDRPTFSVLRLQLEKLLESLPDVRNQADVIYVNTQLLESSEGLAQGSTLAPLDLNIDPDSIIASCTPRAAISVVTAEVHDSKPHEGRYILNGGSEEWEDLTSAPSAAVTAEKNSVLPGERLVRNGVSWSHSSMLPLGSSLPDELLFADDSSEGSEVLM
Test: phosphorylation enrichment, bacterial display (enrichment ratio); higher = better substrate or ligand; peptides without Tyr show the background
Let's look at some sequences and their measured phosphorylation enrichment.
Answer with a bare number; do not write a unit.

[ask] Return phosphorylation enrichment for the following sequence: SPPILYSFFLN [FCRL6_Y239_D244N_YF]
[reply] 10.5

###

Quick reference for SH2 binding enrichment among some sequences
Target: SHP2-C SH2
Test: SH2 binding enrichment of the phosphorylated peptide, bacterial display (enrichment ratio); higher = better substrate or ligand; peptides without Tyr show the background
Just the number.

See these solved cases before continuing.
Query sequence: IHHIDYFKETT [FGFR1_Y653_K656E_YF]
SH2 binding enrichment: 0.767
//
Query sequence: GLPINYTTRRI [LAMA2_Y2894]
SH2 binding enrichment: 0.58
//
Query sequence: FDKPVYQKTTE [LDLR_Y828_N825K]
SH2 binding enrichment: 0.557
//
Query sequence: NPQKPYFIRLY [WAS_Y83_S82P]
SH2 binding enrichment: 0.699
//
Query sequence: ATDLAYFLVCK [ASL_Y375_R379C_YF]
SH2 binding enrichment: 0.748
//
Query sequence: EIVFVYVKKRS [DNAI2_Y7_YF]
SH2 binding enrichment: 0.833

[ask] Give the measured SH2 binding enrichment for CEAIEYLESKQ [BTK_Y511_M509I]
[reply] 0.738

[ask] Specify measured SH2 binding enrichment for QRIHDYFEHRF [HCN4_Y554_YF] .
[reply] 0.46

[ask] Return the recorded SH2 binding enrichment value; entry: RWQQLYDTLNA [EIF3M_Y351_Q346R]
[reply] 0.695

[ask] Report measured SH2 binding enrichment; entry is CTTTHYNYMCN [TP53_Y234_I232T]
[reply] 3.73

[ask] Determine its reported SH2 binding enrichment: ANNPLYKEVTS [ITGB3_Y773_A776V]
[reply] 0.563

[ask] Entry YSKTQYNQVPR [CXADR_Y318_S323R] needs its SH2 binding enrichment filled in; supply it.
[reply] 0.533

[ask] Complete the entry with SH2 binding enrichment for LLLLFYVVRFC [MPZ_Y177_YF]
[reply] 1.9

[ask] Write down SH2 binding enrichment measured for item EEVKAYLDFRE [CHAC2_Y78]
[reply] 0.556

[ask] Answer with the recorded SH2 binding enrichment for the sequence listed here: SDGGCYEQLFV [MC4R_Y41]
[reply] 0.745

###

Biological target: FGFR3 (UniProt P22607)
Sequence (P22607 whole entry, looked up): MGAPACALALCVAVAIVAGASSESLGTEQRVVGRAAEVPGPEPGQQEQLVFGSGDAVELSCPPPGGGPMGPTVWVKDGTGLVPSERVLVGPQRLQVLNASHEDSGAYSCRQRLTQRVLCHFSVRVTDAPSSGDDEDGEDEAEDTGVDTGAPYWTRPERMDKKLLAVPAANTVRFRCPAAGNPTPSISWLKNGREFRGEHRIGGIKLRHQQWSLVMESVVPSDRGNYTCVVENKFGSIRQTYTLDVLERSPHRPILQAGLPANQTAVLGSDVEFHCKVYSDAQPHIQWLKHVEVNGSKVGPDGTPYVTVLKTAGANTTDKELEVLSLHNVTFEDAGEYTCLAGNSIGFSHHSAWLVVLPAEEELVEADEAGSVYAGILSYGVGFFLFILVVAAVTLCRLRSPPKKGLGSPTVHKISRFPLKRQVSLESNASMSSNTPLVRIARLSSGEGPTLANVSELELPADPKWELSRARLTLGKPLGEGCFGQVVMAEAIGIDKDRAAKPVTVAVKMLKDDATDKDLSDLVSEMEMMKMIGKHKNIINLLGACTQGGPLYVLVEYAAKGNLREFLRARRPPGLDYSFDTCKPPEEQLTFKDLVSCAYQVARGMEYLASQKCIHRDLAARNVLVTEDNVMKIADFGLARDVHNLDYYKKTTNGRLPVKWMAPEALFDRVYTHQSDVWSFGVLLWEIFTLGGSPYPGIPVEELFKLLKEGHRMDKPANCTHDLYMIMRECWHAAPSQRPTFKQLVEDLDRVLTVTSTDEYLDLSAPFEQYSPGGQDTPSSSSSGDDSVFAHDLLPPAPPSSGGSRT
Assay: phosphorylation enrichment, bacterial display (enrichment ratio); higher = better substrate or ligand; peptides without Tyr show the background
Could you label it criterion met if measured phosphorylation enrichment is 0.6 or higher, and criterion not met otherwise?

Example results:
Query sequence: GSRGKYSSGFC [ATM_Y332_R337C]
Assigned category: criterion not met
--
Query sequence: KTTILYKLKLG [ARF1_Y35]
Assigned category: criterion met
--
Query sequence: QMVGMYASSFM [AVPR2_Y124_YF]
Assigned category: criterion met
--
Query sequence: GVSYIYTIDGS [DCX_Y105_R102S]
Assigned category: criterion met
--
Query sequence: ESKAGYRVPRS [CLDN7_Y195]
Assigned category: criterion not met
--
Query sequence: IFHENYNAGTF [CFI_Y421_YF]
Assigned category: criterion not met
--
Query sequence: EKSREYDRLFE [PIK3R1_Y463_YF]
Assigned category: criterion not met
--
Query sequence: WSISFYPQVIM [CTNS_Y143]
Assigned category: criterion met

[ask] Would you say EEGNPYYSGAR [MCCC2_Y520_S523G] shows phosphorylation enrichment at minimum 0.6?
[reply] criterion not met

[ask] API: above_or_equal(metric=phosphorylation enrichment, cutoff=0.6) for item EQKRYYNAMKK [SCN5A_Y1495_K1493R]
[reply] criterion not met

[ask] Could you please find out whether SPPILYSFFLN [FCRL6_Y239_D244N_YF] has phosphorylation enrichment that meets 0.6 or exceeds it?
[reply] criterion met

[ask] Form field: phosphorylation enrichment at least 0.6? Entry: EIIPFYGMSSF [FNDC3B_Y175_T179S_YF]
[reply] criterion met

[ask] Could you tell me if the measured phosphorylation enrichment of EYFDGYWGYSV [ITGA2B_Y265] reaches 0.6 or more?
[reply] criterion met

###

Entries annotated with measured phosphorylation enrichment
Molecular target: Jak2 (UniProt O60674)
Sequence (O60674 whole entry, looked up): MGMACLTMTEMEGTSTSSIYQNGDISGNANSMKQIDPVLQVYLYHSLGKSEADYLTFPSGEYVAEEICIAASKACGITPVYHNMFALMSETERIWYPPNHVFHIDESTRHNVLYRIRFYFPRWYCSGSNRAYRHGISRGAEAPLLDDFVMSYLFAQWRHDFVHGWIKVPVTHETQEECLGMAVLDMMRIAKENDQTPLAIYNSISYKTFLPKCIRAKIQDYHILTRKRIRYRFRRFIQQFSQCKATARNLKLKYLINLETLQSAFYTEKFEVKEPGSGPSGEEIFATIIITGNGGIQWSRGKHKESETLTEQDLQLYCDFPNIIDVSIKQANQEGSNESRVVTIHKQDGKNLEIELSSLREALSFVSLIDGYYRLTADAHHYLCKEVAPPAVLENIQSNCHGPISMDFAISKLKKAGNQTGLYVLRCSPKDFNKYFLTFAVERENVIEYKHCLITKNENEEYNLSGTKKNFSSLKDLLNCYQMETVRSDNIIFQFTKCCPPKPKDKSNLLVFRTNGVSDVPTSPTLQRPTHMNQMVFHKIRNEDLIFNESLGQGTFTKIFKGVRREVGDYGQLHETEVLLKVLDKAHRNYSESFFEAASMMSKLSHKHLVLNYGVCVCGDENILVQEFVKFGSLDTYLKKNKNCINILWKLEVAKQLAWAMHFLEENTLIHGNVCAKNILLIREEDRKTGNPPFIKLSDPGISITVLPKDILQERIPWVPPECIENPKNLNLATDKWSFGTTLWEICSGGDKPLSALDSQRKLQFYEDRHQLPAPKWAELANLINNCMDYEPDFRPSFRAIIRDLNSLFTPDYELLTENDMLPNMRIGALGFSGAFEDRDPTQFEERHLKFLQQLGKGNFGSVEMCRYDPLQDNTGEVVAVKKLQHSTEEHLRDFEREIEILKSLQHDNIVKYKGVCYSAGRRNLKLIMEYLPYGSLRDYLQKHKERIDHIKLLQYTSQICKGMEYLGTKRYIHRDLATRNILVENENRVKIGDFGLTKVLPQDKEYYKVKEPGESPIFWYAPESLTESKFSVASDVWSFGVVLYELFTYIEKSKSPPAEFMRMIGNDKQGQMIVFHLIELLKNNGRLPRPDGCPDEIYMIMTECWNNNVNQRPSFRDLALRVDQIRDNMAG
Test: phosphorylation enrichment, bacterial display (enrichment ratio); higher = better substrate or ligand; peptides without Tyr show the background
The answer should be written as a number, with no unit following it.

For orientation, consider the following solved cases.
Query sequence: KLVDVYVNDAF [PGK1_Y161_G158V]
Reported: 0.661
//
Query sequence: GGQSVYHVHLH [HINT1_Y109]
Reported: 0.629
//
Query sequence: EDDIIYTQDFM [STK11_Y362_T367M]
Reported: 1.21
//
Query sequence: GLNKGYRMVVN [HINT1_Y94]
Reported: 0.403
//
Query sequence: LRSKQYLRNPP [SHC1_Y315_F312S]
Reported: 0.355

[ask] Specify reported phosphorylation enrichment for the sequence shown: SRIWVYNHYRW [BRCA2_Y2621]
[reply] 0.95

[ask] For the sequence PSTYRYERGSR [INPPL1_Y663_P659S] , report phosphorylation enrichment.
[reply] 0.475

###

Target: FGFR1 (UniProt P11362)
Sequence (P11362 whole entry, looked up): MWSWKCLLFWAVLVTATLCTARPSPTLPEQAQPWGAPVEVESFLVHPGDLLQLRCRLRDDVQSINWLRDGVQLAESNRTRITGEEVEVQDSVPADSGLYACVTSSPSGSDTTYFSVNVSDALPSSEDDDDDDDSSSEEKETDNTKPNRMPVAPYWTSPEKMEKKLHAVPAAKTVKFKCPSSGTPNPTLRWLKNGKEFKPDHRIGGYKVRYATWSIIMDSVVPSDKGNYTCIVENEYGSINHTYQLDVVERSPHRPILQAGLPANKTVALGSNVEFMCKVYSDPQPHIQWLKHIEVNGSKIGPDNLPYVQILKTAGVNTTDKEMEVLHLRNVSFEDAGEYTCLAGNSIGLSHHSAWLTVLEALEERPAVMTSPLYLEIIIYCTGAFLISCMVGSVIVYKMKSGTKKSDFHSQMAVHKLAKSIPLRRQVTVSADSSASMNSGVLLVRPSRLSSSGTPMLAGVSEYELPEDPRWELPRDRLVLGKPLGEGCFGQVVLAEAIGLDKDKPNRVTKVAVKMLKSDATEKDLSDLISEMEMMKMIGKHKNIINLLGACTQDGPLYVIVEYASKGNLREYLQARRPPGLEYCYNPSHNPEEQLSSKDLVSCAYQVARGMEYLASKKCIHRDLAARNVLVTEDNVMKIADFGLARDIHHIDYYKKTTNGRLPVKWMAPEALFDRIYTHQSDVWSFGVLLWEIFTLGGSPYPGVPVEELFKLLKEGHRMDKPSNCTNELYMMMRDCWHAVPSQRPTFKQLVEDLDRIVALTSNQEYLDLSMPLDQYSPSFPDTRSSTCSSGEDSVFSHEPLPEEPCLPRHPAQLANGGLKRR
Assay: phosphorylation enrichment, bacterial display (enrichment ratio); higher = better substrate or ligand; peptides without Tyr show the background
Returns satisfied if the recorded phosphorylation enrichment is greater than or equal to 0.6, and not satisfied otherwise.

Query sequence: EEGENYQKGER [CHGB_Y173]
Assigned category: not satisfied
//
Query sequence: HVIKLYGACSQ [RET_Y791]
Assigned category: satisfied
//
Query sequence: IMAFFYMCDRA [CASD1_Y382_YF]
Assigned category: satisfied
//
Query sequence: KVPAIYGVGTR [CPS1_Y162_D165G]
Assigned category: not satisfied
//
Query sequence: FQNSLYAPDYS [FAM92A_Y226_R222Q]
Assigned category: satisfied

[ask] Can NGSKAYAYVHF [PABPC5_Y147_G146A] be said to have phosphorylation enrichment at or above 0.6?
[reply] not satisfied

[ask] Reported phosphorylation enrichment at or above 0.6? RLGLQYSQGLV [EIF2B4_Y214]
[reply] satisfied

[ask] Answer whether phosphorylation enrichment of GVIKEYQIRQV [USH2A_Y3623] is greater than or equal to 0.6.
[reply] not satisfied

[ask] Textbook exercise: given the entry FSPFDYQPCLA [TNS1_Y798_YF] , state whether its phosphorylation enrichment is greater than or equal to 0.6.
[reply] satisfied

[ask] Reported phosphorylation enrichment reaches at least 0.6 for WQQQSYLYSGI [CTNNB1_Y30_D32Y] ?
[reply] satisfied

[ask] Is phosphorylation enrichment at least 0.6? Consider SAAAIYMVRHP [PMP22_Y117_T118M]
[reply] not satisfied

[ask] Say whether GFFDLYGGEKF [PTPN11_Y66_D61G_YF] shows phosphorylation enrichment of 0.6 or more.
[reply] not satisfied

[ask] Does the reported phosphorylation enrichment for TRSFDYTEGGD [FGF7_Y58_M59T_YF] fall at or above the 0.6 mark?
[reply] not satisfied

###

Reported phosphorylation enrichment by item:
Target: Fes (UniProt P07332)
Sequence (P07332 whole entry, looked up): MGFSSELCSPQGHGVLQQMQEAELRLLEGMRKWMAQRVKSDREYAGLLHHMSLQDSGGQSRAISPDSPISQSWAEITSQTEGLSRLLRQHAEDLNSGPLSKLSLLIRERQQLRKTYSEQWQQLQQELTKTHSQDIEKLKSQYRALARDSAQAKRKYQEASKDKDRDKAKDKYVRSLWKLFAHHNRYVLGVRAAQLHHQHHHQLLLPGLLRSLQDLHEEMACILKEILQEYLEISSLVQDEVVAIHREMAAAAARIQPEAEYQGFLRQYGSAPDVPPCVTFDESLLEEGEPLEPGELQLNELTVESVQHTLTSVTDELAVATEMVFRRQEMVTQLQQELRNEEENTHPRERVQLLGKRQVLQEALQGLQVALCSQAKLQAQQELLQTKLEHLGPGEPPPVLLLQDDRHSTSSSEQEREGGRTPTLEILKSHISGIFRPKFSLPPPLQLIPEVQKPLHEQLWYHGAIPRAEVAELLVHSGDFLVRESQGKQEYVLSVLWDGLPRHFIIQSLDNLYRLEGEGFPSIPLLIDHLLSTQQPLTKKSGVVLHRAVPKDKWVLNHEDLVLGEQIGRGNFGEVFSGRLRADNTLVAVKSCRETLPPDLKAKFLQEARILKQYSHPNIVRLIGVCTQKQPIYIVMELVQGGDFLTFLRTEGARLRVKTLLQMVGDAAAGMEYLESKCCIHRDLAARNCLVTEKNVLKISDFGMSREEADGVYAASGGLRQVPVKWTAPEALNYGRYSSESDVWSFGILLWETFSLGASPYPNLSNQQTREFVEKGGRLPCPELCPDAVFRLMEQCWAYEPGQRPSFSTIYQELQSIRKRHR
Assay: phosphorylation enrichment, bacterial display (enrichment ratio); higher = better substrate or ligand; peptides without Tyr show the background
No unit in the answer, only the number.

In the examples that follow, each entry is paired with its recorded phosphorylation enrichment.
Query sequence: PLGPLYASSNT [INSR_Y992_P997T]
Reported: 0.949

Query sequence: FPPDGYSRHFE [CTNND1_Y213_YF]
Reported: 0.676

[ask] // fetch phosphorylation enrichment given entry FKEQGYHRLPP [RIN1_Y681_YF]
[reply] 0.679

[ask] Return phosphorylation enrichment (reported value) for this sequence: FRDALYKFIVD [PHEX_Y250_M253I_YF]
[reply] 1.32

[ask] Answer with reported phosphorylation enrichment of GSERDYTYEEL [EIF2S2_Y174]
[reply] 1.13

[ask] Look up and state reported phosphorylation enrichment for KLIETCFSKNF [PLP1_Y50_Y50C_YF]
[reply] 1.23

###

Molecular target: Grb2 SH2 (UniProt P62993)
Sequence (P62993 whole entry, looked up): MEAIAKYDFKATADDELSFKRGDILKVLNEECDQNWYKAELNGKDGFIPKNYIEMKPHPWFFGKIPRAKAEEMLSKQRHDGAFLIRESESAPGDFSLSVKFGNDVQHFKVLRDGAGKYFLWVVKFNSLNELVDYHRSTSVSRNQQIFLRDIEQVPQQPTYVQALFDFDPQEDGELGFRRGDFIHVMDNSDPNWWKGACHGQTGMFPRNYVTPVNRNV
Assay: SH2 binding enrichment of the phosphorylated peptide, bacterial display (enrichment ratio); higher = better substrate or ligand; peptides without Tyr show the background
Examples of sequences with documented SH2 binding enrichment follow.
Lab note: jot down the number only; don't add units.

Reference set, count: 4
Query sequence: NHFKIHNLCAE [PTEN_Y68_Y68H_YF]
SH2 binding enrichment: 1.04
--
Query sequence: LRSKQYLRNPP [SHC1_Y315_F312S]
SH2 binding enrichment: 1.05
--
Query sequence: PGPPGYCDSSQ [COL12A1_Y3043]
SH2 binding enrichment: 0.979
--
Query sequence: IMAFFYMCDRA [CASD1_Y382_YF]
SH2 binding enrichment: 0.819

[ask] Give the reported value of SH2 binding enrichment for this record: RIFDFYSARKT [STOX1_Y858_A863T_YF]
[reply] 0.977

[ask] Write down SH2 binding enrichment measured for item NKVKFYIPDMN [NCR1_Y84]
[reply] 0.954

[ask] Return SH2 binding enrichment for the following sequence: VTQEQYELYCE [CBL_Y368]
[reply] 1.04

[ask] Output measured SH2 binding enrichment for this item: LERYIYNREEL [HLA-DPB1_Y59_F64L]
[reply] 0.914

[ask] Provide measured SH2 binding enrichment value, entry: KVGNGYISAAE [CALM2_Y100_D96V]
[reply] 0.892

[ask] Return SH2 binding enrichment (reported value) for this sequence: AIIEEYLHLSD [EIF4G1_Y1253_N1257S]
[reply] 0.749
